A collection of compounds and their measured Kd
Experimental System: hPXR-LBD (PXR.1) (Homo sapiens)
Sequence (O75469 146-433 limits assumed): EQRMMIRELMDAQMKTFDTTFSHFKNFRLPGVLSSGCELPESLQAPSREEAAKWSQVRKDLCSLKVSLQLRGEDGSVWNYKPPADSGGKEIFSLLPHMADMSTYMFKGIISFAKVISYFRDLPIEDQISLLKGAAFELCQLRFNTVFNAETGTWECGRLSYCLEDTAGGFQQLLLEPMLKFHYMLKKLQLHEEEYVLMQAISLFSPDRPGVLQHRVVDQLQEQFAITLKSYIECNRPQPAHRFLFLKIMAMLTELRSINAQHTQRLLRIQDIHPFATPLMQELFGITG
Assay Name: Isothermal titration calorimetry with His-tagged hPXR-LBD
Run Parameters: 37°C, single-site model
Response body: numeric value in nM, unit text excluded.

Q: Specify Kd for O=C(c1ccncc1)c1cc2ccccc2n1S(=O)(=O)c1ccccc1 [FKK5] , system hPXR-LBD (PXR.1) (Homo sapiens).
A: 300

Q: Specify Kd for C#CCC(O)(c1ccncc1)c1cc2ccccc2n1S(=O)(=O)c1ccccc1 (centres unmarked) [FKK6] , system hPXR-LBD (PXR.1) (Homo sapiens).
A: 2700

---

Experimental System: AhR (Homo sapiens, UniProt P35869)
Construct: endogenous in cells; host or cells: AZ-AHR (HepG2)
Sequence (P35869 11-848): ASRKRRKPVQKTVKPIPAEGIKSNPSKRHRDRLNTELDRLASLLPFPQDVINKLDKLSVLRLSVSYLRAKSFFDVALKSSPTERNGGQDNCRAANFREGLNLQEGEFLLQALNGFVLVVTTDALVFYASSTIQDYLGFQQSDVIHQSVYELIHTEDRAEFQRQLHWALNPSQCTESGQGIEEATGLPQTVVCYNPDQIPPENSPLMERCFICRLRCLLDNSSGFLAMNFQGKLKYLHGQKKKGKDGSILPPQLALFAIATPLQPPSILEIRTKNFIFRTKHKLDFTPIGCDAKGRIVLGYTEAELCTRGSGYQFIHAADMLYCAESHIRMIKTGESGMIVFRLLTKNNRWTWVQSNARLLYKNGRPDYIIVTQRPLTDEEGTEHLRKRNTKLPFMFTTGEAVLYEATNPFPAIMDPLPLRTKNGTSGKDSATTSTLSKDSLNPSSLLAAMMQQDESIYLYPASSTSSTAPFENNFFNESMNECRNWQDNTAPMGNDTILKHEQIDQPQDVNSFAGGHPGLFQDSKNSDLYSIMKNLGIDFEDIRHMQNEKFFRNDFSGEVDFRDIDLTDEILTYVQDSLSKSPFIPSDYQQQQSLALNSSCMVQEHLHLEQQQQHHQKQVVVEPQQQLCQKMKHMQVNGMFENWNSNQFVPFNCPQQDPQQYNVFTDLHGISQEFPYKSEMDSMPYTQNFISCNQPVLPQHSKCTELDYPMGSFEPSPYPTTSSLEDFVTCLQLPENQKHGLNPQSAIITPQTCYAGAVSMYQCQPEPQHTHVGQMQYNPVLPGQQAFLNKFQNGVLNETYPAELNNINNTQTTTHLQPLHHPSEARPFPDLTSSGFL
Assay Name: AhR reporter assay, HepG2 cells stably expressing pCYP1A1 luciferase (AZ-AHR)
Assay type: cell-based
Run Parameters: AZ-AHR cells, 100 nM, fold vs DMSO
A collection of molecules and their measured FOLD INDUCTION (AZ-AHR luciferase)
Response body: numeric value in fold, unit text excluded.

Study these solved cases before continuing.
# Molecule, Experimental System, Measurement Units, FOLD INDUCTION (AZ-AHR luciferase)
records = [
    ("O=S(=O)(c1ccccc1)n1c(C(O)(Cc2cc3ccccc3[nH]2)c2ccncc2)cc2ccccc21 (racemic)", "AhR (Homo sapiens, UniProt P35869)", "fold", 0.7),
    ("CCOCn1c(C(O)(Cc2cc3ccccc3[nH]2)c2ccncc2)cc2ccccc21 (racemic)", "AhR (Homo sapiens, UniProt P35869)", "fold", 1.3),
    ("O=S(=O)(c1ccccc1)n1c(C(O)c2ccncc2)cc2ccccc21 (racemic)", "AhR (Homo sapiens, UniProt P35869)", "fold", 1.1),
]

Q: Retrieve FOLD INDUCTION (AZ-AHR luciferase) measured for OC(Cc1cc2ccccc2[nH]1)(c1ccncc1)c1cc2ccccc2[nH]1 (centres unmarked) and print it.
A: 0.8

Q: Retrieve FOLD INDUCTION (AZ-AHR luciferase) measured for "OC(c1ccncc1)(c1cc2ccccc2[nH]1)c1cc2ccccc2[nH]1" and print it.
A: 2.1
